Biological target: T1, P10-AA
T1 chain: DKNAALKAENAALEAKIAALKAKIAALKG
Experiment: two-hybrid library CCmax;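 further: natural log of median RNA to DNA barcode read ratio; higher means stronger binding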
Conditions: mean of both orientations
measure: interaction score

- binder: "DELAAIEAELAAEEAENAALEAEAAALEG [AP1-AA]"
  interaction score: -1.61
- binder: "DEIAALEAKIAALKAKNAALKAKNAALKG [4H384-AA]"
  interaction score: -1.12
- binder: "DKIAALKAKNAALKAKIAALKAENAALEG [O7-AA]"
  interaction score: -1.18

From: paper PMC10397247
